The reported numbers originate from PubChem BioAssay (NCI).

Documented growth across a set of compounds
# Tested on: BT-549 breast
# protocol-text: NCI-60 one-dose screen, 48 h (100 = growth as untreated, 0 = no growth, -100 = all killed)
# conditions-used: 10 µM unless noted
# Protocol: Growth inhibition of the BT-549 human tumor cell line is measured as a screen for anti-cancer activity. Cells are grown in 96 well plates and exposed to the test compound for 48 hours. Compounds are tested at a single concentration, which is 10^-5 M for most compounds. The reported endpoint is percent growth (GI% or GIPRCNT), where numbers from 0 - 100% represent growth inhibition, and numbers from -100% - 0 represent cell death. For example, a value of 40 represents 60% growth inhibition. […]
This is part of a sample that, as a whole, favours compounds with a hit. Of some 83,000 tested, about 20% had one in any assay. Calls of active or inactive are those of the source. The calls were made as follows: active = growth percent below 10; inactive = the rest.

Examples with answers:
INSERT INTO results (mol_smiles, target_entity, endpoint_result) VALUES
  ('CC[C@H]1OC(=O)[C@H](C)[C@@H](O[C@H]2C[C@@](C)(OC)[C@@H](O)[C@H](C)O2)[C@H](C)[C@@H](O[C@@H]2O[C@H](C)C[C@H](N(C)C)[C@H]2O)[C@](C)(O)C[C@H](C)CN(C)[C@H](C)[C@@H](O)[C@]1(C)O', 'BT-549 breast', '98.4% (inactive)'),
  ('O=C1C=C(OCC=C(Cl)Cl)C(=O)c2ccccc21', 'BT-549 breast', '78.6% (inactive)');

Now let's try a different one.
The recorded growth for entry COc1ccc(CCNc2nc(SC)nc(-c3cccc([N+](=O)[O-])c3)c2C#N)cc1OC equals 42.2% (inactive)

====

# Test system: SN12C renal
# protocol-text: NCI-60 one-dose screen, 48 h
# conditions-used: 10 µM unless noted
About 83,000 compounds went through this panel and 20% of them were active in at least one assay; those are over-represented in the sample as a whole. Calls of active or inactive are those of the source. The calls were made as follows: active = growth percent below 10; inactive = the rest.
Hello, when you answer, please use one of the following outcomes: true (active), false (inactive)

Please review the entries below; each comes with its answer.
INSERT INTO measurements (compound, cat) VALUES
  ('O=C1c2cc3c(cc2-c2c1c1ccc(F)cc1c(=O)n2C[C@H](O)[C@H](O)[C@H](O)CO)OCO3', 'true'),
  ('O=C(CCl)Oc1ccc(-c2ccccc2)c(Br)c1', 'false'),
  ('OCC(O)c1nc2ccc3[nH]ncc3c2c2c1CCCC2 (configuration not stated)', 'false'),
  ('Clc1ccc2nc3nc4ccc[nH]c4cc3c2c1', 'false');

Test call for this compound, please: CCCCN(CCCC)CCCn1c(-c2ccccc2)ccc1-c1ccccc1
false

Test call for this compound, please: CN(Cc1cc(Cl)cc(Cl)c1O)Cc1cc(Cl)cc(Cl)c1O
false

Test call for this compound, please: O=[N+]([O-])c1ccccc1/C=N\NC(=S)N/N=C/c1ccccc1[N+](=O)[O-]
false

Test call for this compound, please: Cc1nn(-c2ccc(F)cc2)c2ncnc(Nc3ccc(NC(=O)Nc4ccc(Cl)c(C(F)(F)F)c4)cc3)c12
false

Test call for this compound, please: CCCCCCN(CCCCCC)CCC(O)c1ccc2ccccc2c1 (configuration not stated)
false

====

# Tested on: SW-620 colon
# protocol-text: NCI-60 one-dose screen, 48 h (100 = growth as untreated, 0 = no growth, -100 = all killed)
# conditions-used: 10 µM unless noted
This is part of a sample that, as a whole, favours compounds with a hit. Of some 83,000 tested, about 20% had one in any assay.
Documented growth across a set of compounds
Numbers only; they are read as %.

INSERT INTO measurements (compound, target_entity, endpoint_result) VALUES
  ('CC1=C[C@H]2c3c(c(O)c(O)c4oc5c(C)cccc5c(=O)c34)[C@H](c3cc(O)c(O)c4oc5c(C)cccc5c(=O)c34)[C@H]2C(C)(C)C1', 'SW-620 colon', 18.7),
  ('Clc1ccc2c(NCCCNc3nc(-n4ccnc4)nc4ccccc34)ccnc2c1', 'SW-620 colon', 89.8),
  ('CCOC(=O)C(C)(C#N)C1C=CCCC1 (centres undefined)', 'SW-620 colon', 91.2),
  ('Cc1nc2c3c(-c4ccccc4)c(-c4ccccc4)oc3ncn2n1', 'SW-620 colon', 96.9),
  ('CCN(CC)c1ccc2c(c1)Oc1nc(N)c(C#N)c(N)c1C2Sc1ccc(SC)cc1 (centres undefined)', 'SW-620 colon', -70.7),
  ('COc1ccc(-n2nc(C)c3c(Nc4ccc(NC(=O)Nc5ccc(Cl)c(C(F)(F)F)c5)cc4)ncnc32)cc1', 'SW-620 colon', 14.3),
  ('Nc1n[nH]c2ccc([C@@H]3Nc4cc5c(cc4[C@H]4C6CCC(C6)[C@@H]34)C(=O)NC5)cc12 (some centres undefined)', 'SW-620 colon', 18.5),
  ('COc1cc(-c2ccc3c(c2)NC(=O)/C3=C\c2ccc[nH]2)ccc1O', 'SW-620 colon', 28.8);

Now let's try a different one.
Simply: COc1ccccc1Nc1nc(-c2cc3cccc(C(F)(F)F)c3oc2=O)cs1 , SW-620 colon, growth = 24

====

# Test system: T-47D breast
# protocol-text: NCI-60 one-dose screen, 48 h (100 = growth as untreated, 0 = no growth, -100 = all killed)
# conditions-used: 10 µM unless noted
# Protocol: Growth inhibition of the T-47D human tumor cell line is measured as a screen for anti-cancer activity. Cells are grown in 96 well plates and exposed to the test compound for 48 hours. Compounds are tested at a single concentration, which is 10^-5 M for most compounds. The reported endpoint is percent growth (GI% or GIPRCNT), where numbers from 0 - 100% represent growth inhibition, and numbers from -100% - 0 represent cell death. For example, a value of 40 represents 60% growth inhibition. […]
The panel holds about 83,000 compounds, 20% with a hit somewhere; the sample as a whole holds those more often.
Hi! Just check whether growth is below 50%. Below gives 1, equal or above gives -1.

INSERT INTO measurements (molecule, target_entity, cat) VALUES
  ('COc1cc(/C=C/C(=O)c2c(C)oc3nc[nH]c(=O)c23)cc(OC)c1OC', 'T-47D breast', -1),
  ('Cc1cc(N2CCOCC2)nc(N[C@@H]2CCC[C@H](Nc3ccnc4cc(Cl)ccc34)C2)n1', 'T-47D breast', 1),
  ('CON1C(=O)CC[C@]2(C)[C@H]3CC[C@@H]4C([C@@]5(C)CCC(=O)O5)CC[C@@]4(C)[C@]3(C)CC[C@H]2C1(C)C (stereo not given in full)', 'T-47D breast', -1),
  ('COc1ccc(Nc2nc(SC)nc(-c3cccc([N+](=O)[O-])c3)c2C#N)cc1', 'T-47D breast', -1);

Please determine if O=C(N/N=C/c1ccccc1O)c1ccccc1Nc1ccnc(C(F)(F)F)c1 is below 50% in terms of growth.
1

Please determine if COc1ccc(S(=O)(=O)N2CCN(C)CC2)cc1NC(=O)c1[nH]c(C)c2c1CCCCC2=O is below 50% in terms of growth.
1

Please determine if N#Cc1c(N)n(CCNC(=O)c2ccccc2)c2nc3ccccc3nc12 is below 50% in terms of growth.
-1

Please determine if C=C1c2nc3ccccc3n2C=C(c2ccc(Cl)cc2)N1Cc1ccc(OC)cc1 is below 50% in terms of growth.
1

Please determine if COc1ccc2c(c1)C(=O)/C(=C/c1ccccn1)CC2 is below 50% in terms of growth.
-1

Please determine if COc1ccc(C2C(C#N)=C(N)Oc3n[nH]c(-c4cccs4)c32)cc1I (stereo not given) is below 50% in terms of growth.
-1

====

# Test system: HT29 colon
# protocol-text: NCI-60 one-dose screen, 48 h
# conditions-used: 10 µM unless noted
The panel holds about 83,000 compounds, 20% with a hit somewhere; the sample as a whole holds those more often. Active and inactive are the calls of the source. Rule for the calls: active = growth percent below 10; inactive = the rest.
Hello, when you answer, please use one of the following outcomes: class 1 = active, class 0 = inactive

INSERT INTO results (compound, cat) VALUES
  ('COc1ccccc1Nc1nc(-c2cc3cccc(C(F)(F)F)c3oc2=O)cs1', 'class 1');

Attention now shifts to the item below.
Test call for this compound, please: Cc1cc(N2CCCC2)nc(NC2CCCC(Nc3ccnc4cc(Cl)ccc34)C2)n1 (stereo unspecified)
class 1

====

# System: RXF 393 renal
# protocol-text: NCI-60 one-dose screen, 48 h (100 = growth as untreated, 0 = no growth, -100 = all killed)
# conditions-used: 10 µM unless noted
About 83,000 compounds went through this panel and 20% of them were active in at least one assay; those are over-represented in the sample as a whole.
Documented growth across a set of compounds
Numbers only; they are read as %.

Examples with answers:
INSERT INTO assay_data (compound, value_type, endpoint_result) VALUES
  ('CC(O)CN1CC(O)=C(c2nc3ccccc3s2)C1=N (configuration not stated)', 'growth', 113),
  ('CC(C)n1c(/C=C/[C@@H](O)C[C@@H](O)CC(=O)O)c(-c2ccc(F)cc2)c2ccccc21', 'growth', 50.9),
  ('O=C1c2c(O)cc(O)cc2-c2c(-c3ccc(O)cc3)oc3cc(O)cc1c23', 'growth', 62.1),
  ('Cn1ccnc1C(=O)/C=C/c1ccc(CC(=O)Nc2ccccc2)cc1', 'growth', 12.1);

The recorded growth for entry O=[N+]([O-])c1ccccc1/C=N\NC(=S)N/N=C/c1ccccc1[N+](=O)[O-] equals 76.3

The recorded growth for entry CC(C)(C)c1cc(C(C)(C)C)cc(S(=O)(=O)Nc2cc3ccccc3cc2C(=O)NCCN)c1 equals 29.1

The recorded growth for entry N#Cc1nnn(-c2ccc(S(N)(=O)=O)cc2)c1NC(=O)CCl equals 109

The recorded growth for entry O=[N+]([O-])c1ccc(Nc2nc(NCCN3CCOCC3)ncc2[N+](=O)[O-])cc1 equals 63

The recorded growth for entry N#Cc1cnn(-c2nc3c(Cl)cccc3s2)c1N equals 92.7

The recorded growth for entry Cc1nn(-c2ccc(F)cc2)c2ncnc(Nc3ccc(NC(=O)Nc4ccc(Cl)c(C(F)(F)F)c4)cc3)c12 equals 19.4

The recorded growth for entry O=C1C=C(O)C(=O)C(CC2=C(O)C(=O)C=C(O)C2=O)=C1O equals 110

The recorded growth for entry COc1cc(-c2nc(C(=O)NCC(=O)NO)nn2-c2ccc(Cl)cc2)cc(OC)c1OC equals 107

The recorded growth for entry COc1cc2c(cc1-c1c(C)noc1C)ncc1nc(-c3ccccn3)n([C@H](C)COC(F)F)c12 equals 60.8

The recorded growth for entry Cn1c(=O)c2c(nc3n(-c4ccc(Cl)cc4Cl)c(Sc4nc(-c5ccccc5)c(C#N)c(=O)[nH]4)cn23)n(C)c1=O equals 59.1

The recorded growth for entry CCCCCC(=O)Oc1ccc(/C(=C(\C)c2ccc(OC)cc2)c2ccc(OCCN3CCCCC3)cc2)cc1 equals 70.2

The recorded growth for entry O=C(CCN1C(=O)/C(=C/c2ccc(Cl)cc2)SC1=S)NCCCN1CCOCC1 equals 109

The recorded growth for entry C=C(C)C1CC(O)C2(C)CCCC3C2C1CC(C)C3(C)CC/C(C)=C/C(O)C1CCC(=O)c2c(OC)cc(OC)cc21 (configuration not stated) equals 52.7
